Consider the following molecules; for each one, report its pIC50.
# assay target: cytochrome bc1 complex (Btbc1), cyt b subunit (Bos taurus)
# Construct: gene MT-CYB; purified 11-subunit mitochondrial bc1 complex from beef heart; with cyt c1, iron-sulfur protein (bc1 complex)
# experiment notes: cyt c reduction assay with purified bc1
# Assay type: biochemical
pIC50 field: float, defined as -log10 of concentration (mol/L).

Which value of pIC50 has been reported for C/C=C(C)/C=C/C=C/[C@H](OC)[C@@H](C)[C@@H](OC)[C@@H](C)CCc1oc2c(O)c(OC)cc(OC)c2c(=O)c1C in the records?
8.55

Consider the molecule shown here: CO/C=C(/C(=O)OC)c1ccccc1Oc1cc(Oc2ccccc2C#N)ncn1 What is its recorded pIC50?
7.32

* * *

# assay target: cytochrome bc1 complex (Btbc1), cyt b subunit (Bos taurus, UniProt P00157)
# Construct: gene MT-CYB; purified 11-subunit mitochondrial bc1 complex from beef heart; with cyt c1, iron-sulfur protein (bc1 complex)
# Sequence (P00157 whole entry): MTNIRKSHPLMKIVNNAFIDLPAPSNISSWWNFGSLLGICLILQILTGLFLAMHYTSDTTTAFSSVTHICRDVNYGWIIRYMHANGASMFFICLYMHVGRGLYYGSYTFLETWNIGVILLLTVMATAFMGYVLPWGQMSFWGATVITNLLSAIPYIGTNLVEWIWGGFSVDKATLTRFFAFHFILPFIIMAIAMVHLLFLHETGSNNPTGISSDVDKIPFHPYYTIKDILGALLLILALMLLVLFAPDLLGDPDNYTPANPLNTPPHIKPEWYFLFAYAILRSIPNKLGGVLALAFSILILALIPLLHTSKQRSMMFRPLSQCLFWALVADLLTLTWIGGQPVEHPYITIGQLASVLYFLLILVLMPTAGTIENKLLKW
# Sequence (P13272 79-274 partner): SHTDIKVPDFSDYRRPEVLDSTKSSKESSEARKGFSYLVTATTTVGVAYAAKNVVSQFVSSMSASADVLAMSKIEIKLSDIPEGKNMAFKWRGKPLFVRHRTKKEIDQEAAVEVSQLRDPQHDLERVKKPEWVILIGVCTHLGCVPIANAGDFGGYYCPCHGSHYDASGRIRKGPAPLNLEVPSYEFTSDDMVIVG
# Sequence (P00125 85-325 partner): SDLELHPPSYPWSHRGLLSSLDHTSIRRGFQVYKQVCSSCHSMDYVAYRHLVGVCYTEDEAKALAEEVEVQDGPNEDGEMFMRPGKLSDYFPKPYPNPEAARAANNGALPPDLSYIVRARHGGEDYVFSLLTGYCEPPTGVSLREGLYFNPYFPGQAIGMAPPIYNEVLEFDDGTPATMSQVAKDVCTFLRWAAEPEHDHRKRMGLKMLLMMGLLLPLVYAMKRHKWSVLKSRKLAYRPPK
# experiment notes: cyt c reduction assay with purified bc1; also difference spectra and Lineweaver-Burk kinetics
# Type: biochemical
endpoint name: IC50
Please append the unit to your numeric answer.

State the recorded IC50 for this entry: CC(C)(C)c1ccc(/C(=C/C(=O)N2CCOCC2)c2ccnc(Cl)c2)cc1 [pyrimorph]
85 µM

* * *

# assay target: cytochrome bc1 complex (Rsbc1), cyt b subunit (Cereibacter sphaeroides)
# Construct: purified hexahistidine-tagged 4-subunit bc1 complex; with cyt c1, iron-sulfur protein (bc1 complex)
# Sequence (Q02761 2-445, one chain of several): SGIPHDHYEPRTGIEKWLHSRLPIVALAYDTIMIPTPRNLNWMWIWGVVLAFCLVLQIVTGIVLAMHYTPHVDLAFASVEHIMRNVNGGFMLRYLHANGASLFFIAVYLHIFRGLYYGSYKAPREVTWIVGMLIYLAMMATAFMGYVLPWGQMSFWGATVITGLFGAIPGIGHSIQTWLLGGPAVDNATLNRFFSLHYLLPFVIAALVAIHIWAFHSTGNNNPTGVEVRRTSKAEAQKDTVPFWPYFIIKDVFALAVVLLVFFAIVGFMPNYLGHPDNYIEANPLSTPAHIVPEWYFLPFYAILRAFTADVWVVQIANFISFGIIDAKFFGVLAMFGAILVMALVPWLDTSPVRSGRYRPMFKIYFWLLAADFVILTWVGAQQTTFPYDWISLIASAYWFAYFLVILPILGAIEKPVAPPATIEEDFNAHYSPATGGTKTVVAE
# experiment notes: cyt c reduction assay with purified bc1; Lineweaver-Burk kinetics
endpoint name: IC50
Value and unit, in that order.

Quick one: IC50 for CC(C)(C)c1ccc(/C(=C/C(=O)N2CCOCC2)c2ccnc(Cl)c2)cc1 ?
69.2 µM
